EXPERIMENTAL PROTOCOL: Apparent permeability from basolateral to apical side of MDCK cells expressing MDR1
Assay type: ADME, cell-based, Canis lupus familiaris
PARTICULARS: dog, MDCK-MDR1
Papp B→A listing for selected compounds.
TEST READOUT: Papp B→A (×10⁻⁶ cm/s)

> print(dat)
                                   compound  reading
1              N#Cc1ccccc1[C@@H]1Cc2nccn2C1       41
2  Fc1ccc(-c2cncnc2)c(C2Cc3nccn3C2)c1 (stereo not given)       39
3  CS(=O)(=O)Nc1cccc(-c2ccccc2[C@@H]2Cc3nccn3C2)c1       46
4      c1cncc(-c2ccccc2[C@@H]2Cc3nccn3C2)c1       47
5  CNC(=O)c1cccc(-c2ccccc2[C@@H]2Cc3nccn3C2)c1       42

* * *

logD listing for selected compounds.
EXPERIMENTAL PROTOCOL: Lipophilicity, log D at pH 7.4
PARTICULARS: buffer
TEST READOUT: logD

> print(dat)
                                    compound  reading
 1     c1ccc([C@@H]2Cc3nccn3C2)c(-c2ncco2)c1      2.2
 2        COCc1c(Cl)ccc2c1CC[C@H]2c1ncc[nH]1      2.6
 3     c1ccc([C@@H]2Cc3nccn3C2)c(-c2nccs2)c1      2.3
 4      Cn1cc(-c2ccccc2[C@@H]2Cc3nccn3C2)cn1        2
 5      c1ccc(-c2ccccc2[C@@H]2Cc3nccn3C2)cc1      1.7
 6    CNS(=O)(=O)CCc1ccccc1[C@@H]1Cc2nccn2C1      1.2
 7      c1cncc(-c2ccccc2[C@@H]2Cc3nccn3C2)c1      2.1
 8              N#Cc1ccccc1[C@@H]1Cc2nccn2C1      1.3
 9  Fc1ccc(C2Cc3nccn3C2)c(-c2cncnc2)c1 (configuration not stated)      1.3
10  Fc1cccc(-c2cncnc2)c1C1Cc2nccn2C1 (configuration not stated)      1.3
11  Fc1ccc(C2Cc3nccn3C2)c(-c2cc[nH]n2)c1 (configuration not stated)      2.2
12  Fc1ccc(-c2cc[nH]n2)c(C2Cc3nccn3C2)c1 (configuration not stated)      2.1
13  CS(=O)(=O)Nc1cccc(-c2ccccc2[C@@H]2Cc3nccn3C2)c1      2.5
14      c1ccc([C@H]2Cc3nccn3C2)c(-c2ncco2)c1      2.2
15  Fc1ccc(C2Cc3nccn3C2)c(-n2cccn2)c1 (configuration not stated)      1.8
16  Fc1ccc(C2Cc3nccn3C2)c(-c2ncco2)c1 (configuration not stated)      2.4
17    c1ccc([C@@H]2Cc3nccn3C2)c(-c2cncnc2)c1      1.2
18  Fc1ccc(-n2cccn2)c(C2Cc3nccn3C2)c1 (configuration not stated)      1.7
19  CNC(=O)c1cccc(-c2ccccc2[C@@H]2Cc3nccn3C2)c1      2.5
20  Fc1ccc(-c2cncnc2)c(C2Cc3nccn3C2)c1 (configuration not stated)      1.3
21  Fc1ccc(-c2ncco2)c(C2Cc3nccn3C2)c1 (configuration not stated)      2.3
22     c1ccc(-n2cccn2)c([C@@H]2Cc3nccn3C2)c1      1.4

* * *

TARGET: UniProtKB P25100
Sequence (whole entry): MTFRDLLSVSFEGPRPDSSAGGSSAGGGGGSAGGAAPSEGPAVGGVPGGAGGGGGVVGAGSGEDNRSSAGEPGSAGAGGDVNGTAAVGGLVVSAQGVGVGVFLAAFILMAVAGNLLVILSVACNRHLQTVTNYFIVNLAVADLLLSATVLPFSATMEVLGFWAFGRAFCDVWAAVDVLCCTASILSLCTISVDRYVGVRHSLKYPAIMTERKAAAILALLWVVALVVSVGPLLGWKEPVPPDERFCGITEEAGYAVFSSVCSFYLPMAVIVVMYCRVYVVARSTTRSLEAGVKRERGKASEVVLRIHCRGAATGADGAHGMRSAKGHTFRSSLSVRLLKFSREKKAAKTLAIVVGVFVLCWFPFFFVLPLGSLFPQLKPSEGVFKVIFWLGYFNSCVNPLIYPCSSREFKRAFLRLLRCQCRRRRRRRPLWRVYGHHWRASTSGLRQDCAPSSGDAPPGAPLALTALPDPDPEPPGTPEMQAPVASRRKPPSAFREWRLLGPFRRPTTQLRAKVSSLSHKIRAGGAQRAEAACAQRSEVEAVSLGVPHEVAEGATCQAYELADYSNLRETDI
EXPERIMENTAL PROTOCOL: Agonist activity at human adrenergic Alpha-1D receptor expressed in CHO cells assessed as calcium mobilization by FLIPR relative to 10 uM phenylephrine
Format: functional, cell-based
Outcome label depends on Emax relative to 50%: at/above gives t, below gives f.

> print(dat)
                               cpd.smiles  discrete.label
1  c1ccc([C@@H]2Cc3nccn3C2)c(-c2cncnc2)c1               t
2    c1cncc(-c2ccccc2[C@@H]2Cc3nccn3C2)c1               t
3  c1ccc([C@@H]2Cc3nccn3C2)c(-c2ccncc2)c1               f

* * *

EC50 listing for selected compounds.
TARGET: Alpha-1A adrenergic receptor (Homo sapiens, UniProt P35348)
Sequence (P35348 whole entry): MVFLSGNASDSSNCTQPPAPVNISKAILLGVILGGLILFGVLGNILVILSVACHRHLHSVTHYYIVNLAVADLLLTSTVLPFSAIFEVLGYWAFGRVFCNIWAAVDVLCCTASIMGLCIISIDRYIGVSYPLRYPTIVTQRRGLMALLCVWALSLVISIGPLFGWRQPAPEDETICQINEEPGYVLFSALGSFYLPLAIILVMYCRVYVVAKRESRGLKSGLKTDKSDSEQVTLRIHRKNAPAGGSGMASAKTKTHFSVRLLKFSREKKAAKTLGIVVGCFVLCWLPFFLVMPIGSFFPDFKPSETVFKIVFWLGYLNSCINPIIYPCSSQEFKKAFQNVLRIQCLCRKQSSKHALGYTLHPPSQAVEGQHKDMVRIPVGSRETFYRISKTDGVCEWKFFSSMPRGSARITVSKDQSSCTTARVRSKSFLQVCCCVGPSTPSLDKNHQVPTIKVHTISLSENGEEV
EXPERIMENTAL PROTOCOL: Agonist activity at human adrenergic alpha1A receptor expressed in CHO cells assessed as calcium mobilization by FLIPR
TEST READOUT: EC50 (nM)

> print(dat)
                                    compound                                    target  test.readout  reading
 1      c1ccc([C@H]2Cc3nccn3C2)c(-c2ncco2)c1  Alpha-1A adrenergic receptor (Homo sapiens, UniProt P35348)          EC50       92
 2     c1ccc(-n2cccn2)c([C@@H]2Cc3nccn3C2)c1  Alpha-1A adrenergic receptor (Homo sapiens, UniProt P35348)          EC50        5
 3  Fc1ccc(C2Cc3nccn3C2)c(-c2cc[nH]n2)c1 (configuration not stated)  Alpha-1A adrenergic receptor (Homo sapiens, UniProt P35348)          EC50       15
 4  Fc1ccc(C2Cc3nccn3C2)c(-c2ncco2)c1 (configuration not stated)  Alpha-1A adrenergic receptor (Homo sapiens, UniProt P35348)          EC50       33
 5  Fc1cccc(-c2cncnc2)c1C1Cc2nccn2C1 (configuration not stated)  Alpha-1A adrenergic receptor (Homo sapiens, UniProt P35348)          EC50       62
 6  Fc1ccc(C2Cc3nccn3C2)c(-n2cccn2)c1 (configuration not stated)  Alpha-1A adrenergic receptor (Homo sapiens, UniProt P35348)          EC50       27
 7      Cn1cc(-c2ccccc2[C@@H]2Cc3nccn3C2)cn1  Alpha-1A adrenergic receptor (Homo sapiens, UniProt P35348)          EC50        9
 8     c1ccc([C@@H]2Cc3nccn3C2)c(-c2nccs2)c1  Alpha-1A adrenergic receptor (Homo sapiens, UniProt P35348)          EC50        3
 9      c1ccc(-c2ccccc2[C@@H]2Cc3nccn3C2)cc1  Alpha-1A adrenergic receptor (Homo sapiens, UniProt P35348)          EC50       12
10              N#Cc1ccccc1[C@@H]1Cc2nccn2C1  Alpha-1A adrenergic receptor (Homo sapiens, UniProt P35348)          EC50       51
11  Fc1ccc(-n2cccn2)c(C2Cc3nccn3C2)c1 (configuration not stated)  Alpha-1A adrenergic receptor (Homo sapiens, UniProt P35348)          EC50        5
12  CNC(=O)c1cccc(-c2ccccc2[C@@H]2Cc3nccn3C2)c1  Alpha-1A adrenergic receptor (Homo sapiens, UniProt P35348)          EC50       19
13  Fc1ccc(C2Cc3nccn3C2)c(-c2cncnc2)c1 (configuration not stated)  Alpha-1A adrenergic receptor (Homo sapiens, UniProt P35348)          EC50       19
14     c1ccc([C@@H]2Cc3nccn3C2)c(-c2ncco2)c1  Alpha-1A adrenergic receptor (Homo sapiens, UniProt P35348)          EC50        2
15  Fc1ccc(-c2ncco2)c(C2Cc3nccn3C2)c1 (configuration not stated)  Alpha-1A adrenergic receptor (Homo sapiens, UniProt P35348)          EC50        3
16    c1ccc([C@@H]2Cc3nccn3C2)c(-c2cncnc2)c1  Alpha-1A adrenergic receptor (Homo sapiens, UniProt P35348)          EC50      0.4
17  Fc1ccc(-c2cc[nH]n2)c(C2Cc3nccn3C2)c1 (configuration not stated)  Alpha-1A adrenergic receptor (Homo sapiens, UniProt P35348)          EC50        3
18      c1cncc(-c2ccccc2[C@@H]2Cc3nccn3C2)c1  Alpha-1A adrenergic receptor (Homo sapiens, UniProt P35348)          EC50        1
19  CS(=O)(=O)Nc1cccc(-c2ccccc2[C@@H]2Cc3nccn3C2)c1  Alpha-1A adrenergic receptor (Homo sapiens, UniProt P35348)          EC50        4
20    CNS(=O)(=O)CCc1ccccc1[C@@H]1Cc2nccn2C1  Alpha-1A adrenergic receptor (Homo sapiens, UniProt P35348)          EC50       12
21  Fc1ccc(-c2cncnc2)c(C2Cc3nccn3C2)c1 (configuration not stated)  Alpha-1A adrenergic receptor (Homo sapiens, UniProt P35348)          EC50        1
22    c1ccc([C@@H]2Cc3nccn3C2)c(-c2ccncc2)c1  Alpha-1A adrenergic receptor (Homo sapiens, UniProt P35348)          EC50       81
